Each item that follows carries a reported composite z-score.
Test system: Neuregulin-1 EGF-like domain
Test: binders of neuregulin-1 EGF-like domain, primary screen, biochemical, small-molecule microarray, 635 nm fluorescence (AID 1081);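 also: binding of the protein to compounds printed on small-molecule microarray slides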
Details: small-molecule microarray binding, higher = more signal
// print number alone

In: Return reported composite z-score. Input compound: C=CCOC(=O)[C@H]1[C@@H]2C(=O)O[C@@H](c3ccccc3)[C@@H](c3ccccc3)N2[C@@H](c2ccc(OCCOC(=O)[C@H]3C[C@H]4C(=O)NCC(=O)N4[C@H]3c3ccc(O)cc3)cc2)[C@]12C(=O)Nc1ccccc12
Out: 1.33

In: Return reported composite z-score. Input compound: COc1ccc([Si](C)(C)[C@@H]2[C@@H](CC(=O)N(CCO)Cc3ccccc3)O[C@]3(C(=O)N(Cc4cccc(I)c4)c4ccccc43)[C@H]2C)cc1
Out: 1.13

In: Return reported composite z-score. Input compound: O=C1C2C=CC(C(O)C3CC=CCC3)N(Nc3ccc([N+](=O)[O-])cc3)C2C(=O)N1c1ccccc1 (configuration not stated)
Out: 1.26

* * *

Molecular target: Alpha-bungarotoxin (Bungarus multicinctus)
Test: alpha-bungarotoxin binders on microarray, profiling panel, artefact control for SMM control protein annotation, biochemical, small-molecule microarray, Alexa647 label, 635/667 nm fluorescence (AID 1117)
Settings: alpha-BTX-A647 binding fluorescence, higher = more signal
readout.name: composite z-score
// print number alone

Some compounds with recorded composite z-score:
compound: C=CCOC(=O)[C@@H]1[C@H]2C(=O)O[C@H](c3ccccc3)[C@H](c3ccccc3)N2[C@H](c2ccc(OCCOC(=O)[C@@H]3C[C@@H]4C(=O)N[C@@H](CC(C)C)C(=O)N4[C@@H]3c3ccc(O)cc3)cc2)[C@@]12C(=O)Nc1ccc(I)cc12
test.value: 1.44

compound: CC(C)(C)OC(=O)N1[C@@H](C=C(Br)Br)COC1(C)C
test.value: 0.398

compound: COC(=O)[C@@]1(Cc2ccc(F)cc2)[C@H]2c3cc(C(=O)N4CCCC4)n(CCc4c[nH]c5cc(F)ccc45)c3C[C@H]2CN1C(=O)c1ccccc1
test.value: 0.841

compound: C=CC[C@]1(C(=O)NCC(O)CO)N=C(c2ccc(OCCCO)cc2)O[C@H]1c1ccccc1CN=[N+]=[N-] (some centres not stated)
test.value: 0.138

compound: CN(C)C(=O)[C@]1(CCS(=O)(=O)c2ccccc2)N=C(c2ccc(OCCCO)cc2)O[C@@H]1c1ccccc1CN=[N+]=[N-]
test.value: 1.71

In: Return reported composite z-score. Input compound: COC(=O)[C@@]1(Cc2ccc(OC)cc2)[C@H]2c3cc(C(=O)N(C)C)n(Cc4c(CO)[nH]cc(C)c4=O)c3C[C@H]2CN1C(=O)c1ccccc1
Out: 0.302

In: Return reported composite z-score. Input compound: CC(CO)N1C(=O)[C@@H]2[C@H]3C(=O)OCC=C[C@H]3OC23C=CCN(c2ccc4ccccc4c2)C(=O)[C@@H]13 (some centres not stated)
Out: -0.674

* * *

Each item that follows carries a reported composite z-score.
System: XIP peptide (Xip251-270)
Assay: small-molecule binders of XIP peptide, primary screen, biochemical, small-molecule microarray, fluorescence 635/667 nm, 0.5 µg/mL protein (AID 1183)
Settings: small-molecule microarray binding, fluorescence 635 nm; higher = more signal

compound: COC(=O)[C@@]1(Cc2ccc(F)cc2)[C@H]2c3cc(C(=O)N4CCCC4)n(Cc4ccc(OC(F)(F)F)cc4)c3C[C@H]2CN1C(=O)c1ccccc1
target.under.test: XIP peptide (Xip251-270)
composite z-score: 0.267

compound: COc1ccc([Si](C)(C)[C@@H]2[C@@H](CC(=O)N3Cc4ccccc4C[C@H]3CO)O[C@]3(C(=O)N(Cc4ccc(I)cc4)c4ccccc43)[C@H]2C)cc1
target.under.test: XIP peptide (Xip251-270)
composite z-score: 0.477

compound: C[N+](C)(C)CCCC[C@@H]1NC(=O)[C@H]2C[C@@H](C(=O)O)[C@@H](c3ccc(O)cc3)N2C1=O
target.under.test: XIP peptide (Xip251-270)
composite z-score: 0.274

compound: O=C1c2ccccc2[C@](Cc2ccccc2I)(C(=O)NCCN2CCOCC2)[C@H](c2ccc(CO)cc2)N1Cc1ccccc1C(F)(F)F
target.under.test: XIP peptide (Xip251-270)
composite z-score: 0.627

compound: COC(=O)[C@H]1N=C(c2ccc(OCCCO)cc2)O[C@H]1c1ccccc1N=[N+]=[N-]
target.under.test: XIP peptide (Xip251-270)
composite z-score: 0.75

In: Return reported composite z-score. Input compound: C=C(CCCC)/C(=C/C[C@@H](OC(C)=O)c1ccc(OCCO)cc1)c1cc(C(=O)OC)ccc1OC
Out: 0.633

In: Return reported composite z-score. Input compound: COC(=O)c1ccc(OC)c(/C=C\CC(OC(=O)c2ccncc2)c2ccccc2)c1 (stereo not drawn)
Out: 0.146

In: Return reported composite z-score. Input compound: COC(=O)[C@@]1(Cc2ccc(F)cc2)[C@H]2c3cc(C(=O)N4CCCC4)n(CCc4c[nH]c5cc(F)ccc45)c3C[C@H]2CN1C(=O)c1ccccc1
Out: 0.684

In: Return reported composite z-score. Input compound: COc1cc(Cc2cc3c(c(CCc4ccccc4)n2)[Si](C(C)C)(C(C)C)O[C@H]3c2ccccc2)cc(OC)c1OC
Out: 0.202

In: Return reported composite z-score. Input compound: COC(=O)[C@@]1(Cc2ccc(F)cc2)[C@@H]2C(=CC(=O)[C@H]2CC(=O)C(=O)N2CCCC2)CN1C(=O)c1ccccc1
Out: 0.839

In: Return reported composite z-score. Input compound: CC(=O)NCCCC[C@@H]1NC(=O)[C@H]2C[C@@H](C(=O)NCCCCCN)[C@@H](c3ccc(O)cc3)N2C1=O
Out: 0.562

In: Return reported composite z-score. Input compound: COc1cccc(C)c1NC(=O)O[C@H]1[C@H](OC(=O)Nc2ccc3c(c2)OCO3)[C@H](OC(=O)Nc2ccc3c(c2)OCO3)[C@@H](OC)O[C@@H]1CO
Out: 0.798

In: Return reported composite z-score. Input compound: COC(=O)C(CC#Cc1ccc2c(c1)[C@]1(C(=O)N2)[C@H](c2ccc(OCCO)cc2)N2[C@H](c3ccccc3)[C@H](c3ccccc3)OC(=O)[C@H]2[C@@H]1C(N)=O)C(=O)OC
Out: 0.657

* * *

Molecular target: Neurogenic locus notch homolog protein 2 (Homo sapiens)
Experiment: Notch2 binders on small-molecule microarrays, primary screen, biochemical, small-molecule microarray, 635 nm fluorescence, stem cell growth factors (AID 1073)
Details: Notch2 binding, higher = more signal
readout.name: composite z-score
// print number alone

compound.string: CN(C)C(=O)[C@]1(CCS(=O)(=O)c2ccccc2)N=C(c2ccc(OCCCO)cc2)O[C@@H]1c1ccccc1CN=[N+]=[N-]
target.under.test: Neurogenic locus notch homolog protein 2 (Homo sapiens)
composite z-score: 1.55
--
compound.string: CC(C)C[C@@H]1NC(=O)[C@@H]2C[C@H](C(=O)NCCCCCNC(=O)CS)[C@H](c3ccc(O)cc3)N2C1=O
target.under.test: Neurogenic locus notch homolog protein 2 (Homo sapiens)
composite z-score: 0.0232
--
compound.string: CCCC=C(CCC)[C@@H](NC(=O)c1ccc(C(=O)OC)cc1)c1ccc(C(=O)OC)cc1
target.under.test: Neurogenic locus notch homolog protein 2 (Homo sapiens)
composite z-score: 0.423
--
compound.string: COCCCNC(=O)[C@@]1(c2ccc([N+](=O)[O-])cc2)CC(=O)N(C2CCCCC2)[C@@H]1c1ccc(CO)cc1I
target.under.test: Neurogenic locus notch homolog protein 2 (Homo sapiens)
composite z-score: -0.161
--
compound.string: COC(=O)[C@@]1(Cc2ccccc2)[C@H]2c3cc(C(=O)N(C)C)n(Cc4nc5ccccc5[nH]4)c3C[C@H]2CN1C(=O)c1ccccc1
target.under.test: Neurogenic locus notch homolog protein 2 (Homo sapiens)
composite z-score: 1.77

In: Return reported composite z-score. Input compound: C=CCNC(=O)[C@H]1[C@@H]2C(=O)O[C@@H](c3ccccc3)[C@@H](c3ccccc3)N2[C@@H](c2ccc(O)cc2)[C@]12C(=O)Nc1ccc(C#CCC(C(=O)OC)C(=O)OC)cc12
Out: 0.136

In: Return reported composite z-score. Input compound: O=C1N(Cc2ccccc2)c2ccccc2C[C@@]12N=C(c1ccc(OCCCO)cc1)O[C@H]2c1ccccc1
Out: 0.18

* * *

Assay: small-molecule microarray binders of probe aXIP, primary screen, biochemical, NeuroSMM set, 635/667 nm fluorescence (AID 1119);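 also: probe is the protein aXip251-270 applied at 1 µg/mL to compound-printed slides; binding of probe to printed compounds measured as 667 nm fluorescence plus signal to noise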
Details: higher = more signal, called active from +8 up or from −8 down
Each item that follows carries a reported composite Z-score.
// print number alone

molecule: C=CCNC(=O)[C@@H]1[C@H]2C(=O)O[C@H](c3ccccc3)[C@H](c3ccccc3)N2[C@H](c2ccc(O)cc2)[C@@]12C(=O)Nc1ccc(C#CC3=CCCCC3)cc12
readout.name: composite Z-score
test.value: 0.986
--
molecule: CC1C2C(CCCO)=CC(C3C(=O)N(C)C(=O)C23)N1Cc1cccc(OC(F)(F)F)c1 (stereo unspecified)
readout.name: composite Z-score
test.value: -0.0186
--
molecule: [N-]=[N+]=Nc1ccccc1C[C@]1(C(=O)N2CCCCC2)N=C(c2ccc(OCCCO)cc2)O[C@H]1c1ccccc1
readout.name: composite Z-score
test.value: -0.399
--
molecule: O=C1NC(=O)C2C1C=CC(C(O)C(c1ccccc1)c1ccccc1)N2Nc1ccccn1 (stereo unspecified)
readout.name: composite Z-score
test.value: -0.212
--
molecule: CN1C2C=C(c3ccc(CO)cc3)C(C3C(=O)N(C(N)=O)C(=O)C32)C1C1CC1 (stereo unspecified)
readout.name: composite Z-score
test.value: -0.378
--
molecule: [N-]=[N+]=NCc1ccccc1[C@H]1OC(c2ccc(OCCCO)cc2)=N[C@@]1(CCS(=O)(=O)c1ccccc1)C(=O)O
readout.name: composite Z-score
test.value: 0.177
--
molecule: C=CCN1C(=O)[C@]2(O[C@H](CCO)[C@@H]([Si](C)(C)c3ccc(OC)cc3)[C@@H]2C)c2cc(N3C(=O)c4ccccc4Oc4ccccc43)ccc21
readout.name: composite Z-score
test.value: -0.0467
--
molecule: CC(=O)NCCCC[C@@H]1NC(=O)[C@H]2C[C@@H](C(=O)O)[C@@H](c3cccc(OCCO)c3)N2C1=O
readout.name: composite Z-score
test.value: 0.446
--
molecule: CC(C)N1CC=CC23O[C@@H]4/C=C\CCCOC(=O)C4[C@H]2C(=O)N(C(C)CO)[C@@H]3C1=O (stereo partly specified)
readout.name: composite Z-score
test.value: 0.0835
--
molecule: C[C@]1(C(=O)NC2CC2)c2ccccc2C(=O)N(Cc2cc(F)cc(C(F)(F)F)c2)[C@H]1c1ccc(CO)cc1
readout.name: composite Z-score
test.value: 0.004

In: Return reported composite Z-score. Input molecule: O=C1NC(=O)C2C1C=CC(C(O)C1CCCCC1)N2Nc1ccccn1 (stereo unspecified)
Out: 0.468

In: Return reported composite Z-score. Input molecule: C=CC[C@H](O)c1ccc(O)c(F)c1
Out: 0.404

In: Return reported composite Z-score. Input molecule: C=CCNC(=O)[C@H]1[C@@H]2C(=O)O[C@@H](c3ccccc3)[C@@H](c3ccccc3)N2[C@@H](c2ccc(O)cc2)[C@]12C(=O)N(C(=O)OCCOC)c1ccc(C#Cc3ccc(OC)cc3)cc12
Out: -0.0437

In: Return reported composite Z-score. Input molecule: COc1ccc([Si](C)(C)[C@H]2[C@H](CC(=O)N3CCC[C@H]3CO)O[C@@]3(C(=O)N(Cc4cccc(N5CCCCC5=O)c4)c4ccccc43)[C@@H]2C)cc1
Out: 0.433

In: Return reported composite Z-score. Input molecule: CC(C)(C)OC(=O)CC[C@]1(C(=O)N2CCOCC2)COC(c2ccc(OCCCO)cc2)=N1
Out: -0.124

In: Return reported composite Z-score. Input molecule: C=C[C@H](C)[C@@H](OC(=O)Nc1ccc(SC)cc1)c1ccc(OCCO)cc1
Out: 0.794
